These measurements were taken from patent US10781204B2.

Listed below: pEC50 values for each entry.
Test system: Tyk2-pSTAT4 (IL-12 induced pSTAT4)
experiment-summary: IL-12 induced pSTAT4 in human PBMC
Type: cell-based
measurement-conditions: Homo sapiens, PBMC, 0.5 h, 1.7 ng/mL IL-12, 30 minutes
pEC50: −log10 of the molar value.

1. N#Cc1cccc(F)c1-c1cc(-c2ccn(C(=O)N3CCOCC3)n2)c2c(n1)CNC2=O [I-231]; < 5.70
2. N#Cc1cccc(F)c1-c1cc(-n2ccc(N3CCC(O)CC3)n2)c2c(n1)CNC2=O [I-56]; 5.70 to 7.00
3. N#Cc1cccc(F)c1-c1cc(-n2ccc(N3C[C@H]4CC[C@@H](C3)O4)n2)c2c(n1)CNC2=O [I-188]; 5.70 to 7.00

Item N#Cc1cccc(F)c1-c1cc(-n2ccc(N3CCC[C@@H](N)C3)n2)c2c(n1)CNC2=O [I-73] : provide pEC50
5.70 to 7.00

Input [2H]C1([2H])C[C@H](O)C([2H])([2H])N1c1ccn(-c2cc(-c3c(F)cccc3C#N)nc3c2C(=O)NC3)n1 [I-142] , output reported pEC50.
7.00 to 7.52

State, in one line, measured pEC50 of CC(=O)Nc1ccn(-c2cc(-c3c(F)cccc3C#N)nc3c2C(=O)NC3)n1 [I-212]
5.70 to 7.00

Identify measured pEC50 corresponding to CO[C@H]1CN(c2ccn(-c3cc(-c4c(F)cccc4C#N)nc4c3C(=O)NC4)n2)CC[C@H]1O [I-181]
5.70 to 7.00

Please list pEC50 recorded for the compound N#Cc1cccc(F)c1-c1cc(-n2ccc(N3CCC[C@@](O)(C(F)(F)F)C3)n2)c2c(n1)CNC2=O [I-89]
5.70 to 7.00

Specify pEC50 for N#Cc1cccc(F)c1-c1cc(-n2ccc(N3CCC[C@@H](O)C3)n2)c2c(n1)CNC2=O [I-69] and stop.
5.70 to 7.00

Consider the compound CS(=O)(=O)N[C@H]1CCN(c2ccn(-c3cc(-c4c(F)cccc4C#N)nc4c3C(=O)NC4)n2)C1 [I-135] . State its measured pEC50.
5.70 to 7.00

* * *

subject-of-test: TYK2 (Homo sapiens (Human), UniProt P29597)
Sequence (P29597 whole entry): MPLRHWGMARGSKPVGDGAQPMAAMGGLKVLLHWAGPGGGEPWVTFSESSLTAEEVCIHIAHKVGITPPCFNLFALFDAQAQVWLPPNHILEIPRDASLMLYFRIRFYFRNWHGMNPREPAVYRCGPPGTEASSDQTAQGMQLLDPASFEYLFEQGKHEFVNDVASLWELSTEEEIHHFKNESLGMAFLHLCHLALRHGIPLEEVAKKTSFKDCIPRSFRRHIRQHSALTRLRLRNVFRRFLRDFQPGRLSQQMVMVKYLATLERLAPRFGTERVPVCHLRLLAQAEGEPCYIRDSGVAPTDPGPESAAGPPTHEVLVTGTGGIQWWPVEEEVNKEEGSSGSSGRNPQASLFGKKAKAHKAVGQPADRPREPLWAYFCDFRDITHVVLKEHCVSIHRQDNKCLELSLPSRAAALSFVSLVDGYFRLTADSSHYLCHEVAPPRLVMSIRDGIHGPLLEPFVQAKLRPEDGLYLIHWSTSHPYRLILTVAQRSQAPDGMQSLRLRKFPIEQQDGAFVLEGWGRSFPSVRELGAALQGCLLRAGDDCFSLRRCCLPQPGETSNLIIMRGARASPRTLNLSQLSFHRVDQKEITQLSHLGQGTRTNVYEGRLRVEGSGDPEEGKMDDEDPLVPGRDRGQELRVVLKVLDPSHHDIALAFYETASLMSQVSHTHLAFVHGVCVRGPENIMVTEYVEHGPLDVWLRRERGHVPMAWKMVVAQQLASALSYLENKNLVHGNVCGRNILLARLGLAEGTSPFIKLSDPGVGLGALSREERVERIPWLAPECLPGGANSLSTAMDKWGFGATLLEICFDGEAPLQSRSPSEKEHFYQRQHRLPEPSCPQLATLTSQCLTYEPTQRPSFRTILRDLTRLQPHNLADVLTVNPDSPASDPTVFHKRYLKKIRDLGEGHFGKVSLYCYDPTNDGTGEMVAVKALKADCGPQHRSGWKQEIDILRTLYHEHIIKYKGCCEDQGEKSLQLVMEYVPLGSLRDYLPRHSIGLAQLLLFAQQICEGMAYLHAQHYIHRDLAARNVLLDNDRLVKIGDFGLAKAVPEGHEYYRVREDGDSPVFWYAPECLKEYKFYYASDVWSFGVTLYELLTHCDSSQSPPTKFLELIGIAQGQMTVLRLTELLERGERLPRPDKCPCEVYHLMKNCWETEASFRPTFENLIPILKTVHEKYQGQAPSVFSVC
experiment-summary: Tyk2 radioactive kinase assay
Assay type: biochemical
measurement-conditions: ATP 10 μM
pKi: −log10 of the molar value.
Each item that follows carries a reported pKi.

Sample records with pKi:
1) N#Cc1cccc(F)c1-c1cc(-n2ccc(N3CCOCC3=O)n2)c2c(n1)CNC2=O; 8.00 to 10.00
2) CO[C@@H]1CCN(c2ccn(-c3cc(-c4c(F)cccc4C#N)nc4c3C(=O)NC4)n2)C[C@H]1O; 8.00 to 10.00
3) CCNC(=O)Cc1ccn(-c2cc(-c3c(F)cccc3F)nc3c2C(=O)NC3)n1; 7.00 to 8.00

Jot down pKi (TYK2 (Homo sapiens (Human), UniProt P29597)) of N#Cc1cccc(F)c1-c1cc(-n2ccc(N3CCC[C@@H](C(=O)N4CCCC4)C3)n2)c2c(n1)CNC2=O .
8.00 to 10.00

Please tell me the measured pKi for N#Cc1cccc(F)c1-c1cc(-n2ccc(N3CCCC(N)(C(F)(F)F)C3)n2)c2c(n1)CNC2=O (stereo not shown) ; system: TYK2 (Homo sapiens (Human), UniProt P29597).
10.00 to 11.05

Supply pKi measured with TYK2 (Homo sapiens (Human), UniProt P29597) for N#Cc1cccc(F)c1-c1cc(-n2ccc(C3CCCO3)n2)c2c(n1)CNC2=O (stereo not shown) .
8.00 to 10.00

# assay system TYK2 (Homo sapiens (Human), UniProt P29597): give pKi of CC1(C#N)CCCN(c2ccn(-c3cc(-c4c(F)cccc4C#N)nc4c3C(=O)NC4)n2)C1 (stereo not shown)
8.00 to 10.00

* * *

pKi: −log10 of the molar value.
A set of compounds tested on JAK2 (Homo sapiens (Human)), with measured pKi:

Solved entries (count: 2):
1. N#Cc1cccc(F)c1-c1cc(-n2ccc(N3CCC4(C3)OCCO4)n2)c2c(n1)CNC2=O; 8.00 to 10.00
2. N#Cc1cccc(F)c1-c1cc(-n2ccc(N3CCOC[C@H]3CO)n2)c2c(n1)CNC2=O; 8.00 to 10.00

Attention now shifts to the item below.
State its pKi for this compound: [2H]C1([2H])C[C@](O)(C([2H])([2H])[2H])C([2H])([2H])N1c1ccn(-c2cc(-c3c(F)cccc3C#N)nc3c2C(=O)NC3)n1
8.00 to 10.00

* * *

Notes on pKi obtained with TYK2 (Homo sapiens (Human), UniProt P29597).
pKi: −log10 of the molar value.

1) N#Cc1cccc(F)c1-c1cc(-n2ccc(N3CCC(C#N)C3)n2)c2c(n1)CNC2=O (stereo not shown); 8.00 to 10.00
2) [2H]C([2H])([2H])O[C@H]1CN(c2ccn(-c3cc(-c4c(F)cccc4C#N)nc4c3C(=O)NC4)n2)C[C@H]1O; 8.00 to 10.00
3) N#Cc1cccc(F)c1-c1cc(-n2ccc(N3CC[C@@H](O)C3)n2)c2c(n1)CNC2=O; 8.00 to 10.00
4) N#Cc1cccc(F)c1-c1cc(-n2ccc(CCO)n2)c2c(n1)CNC2=O; 7.00 to 8.00
5) N#Cc1cccc(F)c1-c1cc(-n2ccc(N3CCC(O)C3)n2)c2c(n1)CNC2=O (stereo not shown); 10.00 to 11.05
6) CO[C@H]1CN(c2ccn(-c3cc(-c4c(F)cccc4C#N)nc4c3C(=O)NC4)n2)C[C@H]1O; 8.00 to 10.00
7) N#Cc1cccc(F)c1-c1cc(-n2ccc(N3CCC4(C3)OCC(O)CO4)n2)c2c(n1)CNC2=O (stereo not shown); 8.00 to 10.00
8) COCCOC1CN(c2ccn(-c3cc(-c4c(F)cccc4C#N)nc4c3C(=O)NC4)n2)C1; ≤ 6.00

Quote TYK2 (Homo sapiens (Human), UniProt P29597) pKi for entry [2H]C1([2H])C[C@](O)(C([2H])([2H])[2H])C([2H])([2H])N1c1ccn(-c2cc(-c3c(F)cccc3C#N)nc3c2C(=O)NC3)n1 .
8.00 to 10.00

Recall the reported pKi of CC1=C(c2ccn(-c3cc(-c4c(F)cccc4C#N)nc4c3C(=O)NC4)n2)CNC1=O when tested on TYK2 (Homo sapiens (Human), UniProt P29597).
8.00 to 10.00

* * *

subject-of-test: JAK2 (Homo sapiens (Human), UniProt O60674)
Sequence (O60674 whole entry): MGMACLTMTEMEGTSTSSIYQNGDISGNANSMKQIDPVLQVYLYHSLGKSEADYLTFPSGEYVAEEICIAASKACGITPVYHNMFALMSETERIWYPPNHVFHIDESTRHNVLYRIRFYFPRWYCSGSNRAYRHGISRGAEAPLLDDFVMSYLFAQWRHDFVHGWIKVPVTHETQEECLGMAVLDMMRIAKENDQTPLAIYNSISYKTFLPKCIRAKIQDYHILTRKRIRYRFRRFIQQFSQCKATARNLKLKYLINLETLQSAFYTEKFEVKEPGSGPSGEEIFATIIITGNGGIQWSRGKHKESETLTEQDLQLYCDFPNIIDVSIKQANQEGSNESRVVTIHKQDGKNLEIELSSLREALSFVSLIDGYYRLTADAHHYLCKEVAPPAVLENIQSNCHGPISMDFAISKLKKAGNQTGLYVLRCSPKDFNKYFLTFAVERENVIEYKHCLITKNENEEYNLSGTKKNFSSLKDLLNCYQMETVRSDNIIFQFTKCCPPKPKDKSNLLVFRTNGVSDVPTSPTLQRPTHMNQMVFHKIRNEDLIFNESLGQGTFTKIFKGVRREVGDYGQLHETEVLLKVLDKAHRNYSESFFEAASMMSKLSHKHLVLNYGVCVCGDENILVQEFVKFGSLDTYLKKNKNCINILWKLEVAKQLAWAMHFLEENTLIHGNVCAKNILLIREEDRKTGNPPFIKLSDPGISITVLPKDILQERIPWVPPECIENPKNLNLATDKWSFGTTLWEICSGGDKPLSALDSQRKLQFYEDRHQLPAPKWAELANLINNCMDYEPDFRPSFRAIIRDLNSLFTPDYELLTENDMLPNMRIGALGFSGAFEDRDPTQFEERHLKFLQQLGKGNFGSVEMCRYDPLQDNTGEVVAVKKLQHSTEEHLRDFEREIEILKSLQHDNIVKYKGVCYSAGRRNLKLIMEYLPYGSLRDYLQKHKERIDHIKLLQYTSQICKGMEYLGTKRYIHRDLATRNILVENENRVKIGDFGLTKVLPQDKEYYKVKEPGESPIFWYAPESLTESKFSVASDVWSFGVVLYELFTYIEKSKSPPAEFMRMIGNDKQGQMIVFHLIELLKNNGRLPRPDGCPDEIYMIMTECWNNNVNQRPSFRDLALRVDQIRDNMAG
pKi: −log10 of the molar value.
readout: pKi

1. N#Cc1cccc(F)c1-c1cc(-n2ccc(N3CCC[C@@H](CO)C3)n2)c2c(n1)CNC2=O [I-97]; 7.00 to 8.00
2. N#Cc1cccc(F)c1-c1cc(-n2ccc(N3CCNC(=O)CC3)n2)c2c(n1)CNC2=O [I-141]; 8.00 to 10.00

Give the reported value of pKi for this record: CS(=O)(=O)NC1CCN(c2ccn(-c3cc(-c4c(F)cccc4C#N)nc4c3C(=O)NC4)n2)C1 (stereo not drawn) [I-120]
8.00 to 10.00

* * *

Consider the following compounds and their measured pEC50 readings.
Tested on: Tyk2-pSTAT4 (IL-12 induced pSTAT4)
experiment-summary: IL-12 induced pSTAT4 in human PBMC
Type: cell-based
measurement-conditions: Homo sapiens, PBMC, 0.5 h, 1.7 ng/mL IL-12, 30 minutes
pEC50: −log10 of the molar value.

Record excerpt, results attached:
1) N#Cc1cccc(F)c1-c1cc(-n2ccc(N3C[C@H](O)C[C@H]3CO)n2)c2c(n1)CNC2=O; 5.70 to 7.00
2) N#Cc1cccc(F)c1-c1cc(-n2ccc(N3CCC[C@](O)(C(F)(F)F)C3)n2)c2c(n1)CNC2=O; 5.70 to 7.00
3) [2H]C1([2H])NC(=O)c2c(-n3ccc(N4CC[C@@H](O)C4)n3)cc(-c3c(F)cccc3C#N)nc21; 7.00 to 7.52
4) [2H]C1([2H])NC(=O)c2c(-n3ccc(N4C([2H])([2H])CC(O)(C([2H])([2H])[2H])C4([2H])[2H])n3)cc(-c3c(F)cccc3C#N)nc21 (centres unmarked); 7.00 to 7.52

Next:
Find the measured pEC50 of CN1CCN([C@H]2CCCN(c3ccn(-c4cc(-c5c(F)cccc5C#N)nc5c4C(=O)NC5)n3)C2)CC1 with Tyk2-pSTAT4 (IL-12 induced pSTAT4) as test system.
5.70 to 7.00

* * *

Tested on: Tyk2-pSTAT4 (IL-12 induced pSTAT4)
experiment-summary: IL-12 induced pSTAT4 in human PBMC
Assay type: cell-based
measurement-conditions: Homo sapiens, PBMC, 0.5 h, 1.7 ng/mL IL-12, 30 minutes
readout: EC50

1. CCNC(=O)[C@H]1CCCN(c2ccn(-c3cc(-c4c(F)cccc4C#N)nc4c3C(=O)NC4)n2)C1 [I-171]; 100 to 2000 nM

Report EC50 under test system Tyk2-pSTAT4 (IL-12 induced pSTAT4) for N#Cc1cccc(F)c1-c1cc(-n2ccc(N3CCC[C@@H](C(=O)N4CCCC4)C3)n2)c2c(n1)CNC2=O [I-167] .
100 to 2000 nM

Give EC50 for this entry on Tyk2-pSTAT4 (IL-12 induced pSTAT4): N#Cc1cccc(F)c1-c1cc(-n2ccc(N3CC[C@@H](C#N)[C@H](O)C3)n2)c2c(n1)CNC2=O [I-217]
30 to 100 nM

Quote Tyk2-pSTAT4 (IL-12 induced pSTAT4) EC50 for entry N#Cc1cccc(F)c1-c1cc(-n2ccc(N3CCCC(C(N)=O)C3)n2)c2c(n1)CNC2=O (stereo not drawn) [I-122] .
100 to 2000 nM

Given N#Cc1cccc(F)c1-c1cc(-n2ccc(N3C[C@@H]4OCCO[C@@H]4C3)n2)c2c(n1)CNC2=O [I-169] , report its EC50 on Tyk2-pSTAT4 (IL-12 induced pSTAT4).
30 to 100 nM

With Tyk2-pSTAT4 (IL-12 induced pSTAT4) as the test system, provide measured EC50 for this compound: [2H]C([2H])([2H])O[C@H]1CN(c2ccn(-c3cc(-c4c(F)cccc4C#N)nc4c3C(=O)NC4)n2)C[C@H]1O [I-224]
30 to 100 nM

Report the value of EC50 obtained on Tyk2-pSTAT4 (IL-12 induced pSTAT4) for CO[C@@H]1CCN(c2ccn(-c3cc(-c4c(F)cccc4C#N)nc4c3C(=O)NC4)n2)C[C@H]1O [I-193] .
100 to 2000 nM

Answer with EC50 of CC(=O)NC1CCCN(c2ccn(-c3cc(-c4c(F)cccc4C#N)nc4c3C(=O)NC4)n2)C1 (stereo not drawn) [I-123] measured for Tyk2-pSTAT4 (IL-12 induced pSTAT4).
100 to 2000 nM

Report the value of EC50 obtained on Tyk2-pSTAT4 (IL-12 induced pSTAT4) for CO[C@H]1CCN(c2ccn(-c3cc(-c4c(F)cccc4C#N)nc4c3C(=O)NC4)n2)C[C@@H]1O [I-210] .
30 to 100 nM

Write EC50 of C[C@H]1CC[C@@H](O)CN1c1ccn(-c2cc(-c3c(F)cccc3C#N)nc3c2C(=O)NC3)n1 [I-113] ; system used: Tyk2-pSTAT4 (IL-12 induced pSTAT4)
100 to 2000 nM

Tell me EC50 of N#Cc1cccc(F)c1-c1cc(-n2ccc(N3CCOCC3)n2)c2c(n1)CNC2=O [I-4] when tested on Tyk2-pSTAT4 (IL-12 induced pSTAT4).
100 to 2000 nM

Give Tyk2-pSTAT4 (IL-12 induced pSTAT4) EC50 for the following compound: CN1CCN(C2CCCN(c3ccn(-c4cc(-c5c(F)cccc5C#N)nc5c4C(=O)NC5)n3)C2)CC1 (stereo not drawn) [I-147]
100 to 2000 nM

Look up and report measured EC50 (Tyk2-pSTAT4 (IL-12 induced pSTAT4)) for the following compound: CCNC(=O)C1CCCN(c2ccn(-c3cc(-c4c(F)cccc4C#N)nc4c3C(=O)NC4)n2)C1 (stereo not drawn) [I-159]
100 to 2000 nM

Fill: EC50 (Tyk2-pSTAT4 (IL-12 induced pSTAT4)) for this compound N#Cc1cccc(F)c1-c1cc(-n2ccc(N3CCCC3=O)n2)c2c(n1)CNC2=O [I-139]
100 to 2000 nM

# lookup: Tyk2-pSTAT4 (IL-12 induced pSTAT4) EC50, key = N#Cc1cccc(F)c1-c1cc(-n2ccc(N3CCC[C@H](C(N)=O)C3)n2)c2c(n1)CNC2=O [I-126]
100 to 2000 nM

Give Tyk2-pSTAT4 (IL-12 induced pSTAT4) EC50 for the following compound: CC1(O)CN(c2ccn(-c3cc(-c4c(F)cccc4C#N)nc4c3C(=O)NC4)n2)CCC1F (stereo not drawn) [I-219]
100 to 2000 nM

Answer briefly: EC50 recorded on Tyk2-pSTAT4 (IL-12 induced pSTAT4) for N#Cc1cccc(F)c1-c1cc(-n2ccc([C@H]3CCCO3)n2)c2c(n1)CNC2=O [I-103]
100 to 2000 nM

Identify measured EC50 obtained with Tyk2-pSTAT4 (IL-12 induced pSTAT4) for N#Cc1cccc(F)c1-c1cc(-n2ccc(N3CC[C@](O)(C(=O)N4CCCC4)C3)n2)c2c(n1)CNC2=O [I-198] .
100 to 2000 nM
